This collection of values is drawn from paper PMC10786891.

measured-target: T1, EsCas13d, nuclease-dead (Eubacterium siraeum, UniProt B0MS50, R295A;H300A;R849A;H854A)
T1 sequence: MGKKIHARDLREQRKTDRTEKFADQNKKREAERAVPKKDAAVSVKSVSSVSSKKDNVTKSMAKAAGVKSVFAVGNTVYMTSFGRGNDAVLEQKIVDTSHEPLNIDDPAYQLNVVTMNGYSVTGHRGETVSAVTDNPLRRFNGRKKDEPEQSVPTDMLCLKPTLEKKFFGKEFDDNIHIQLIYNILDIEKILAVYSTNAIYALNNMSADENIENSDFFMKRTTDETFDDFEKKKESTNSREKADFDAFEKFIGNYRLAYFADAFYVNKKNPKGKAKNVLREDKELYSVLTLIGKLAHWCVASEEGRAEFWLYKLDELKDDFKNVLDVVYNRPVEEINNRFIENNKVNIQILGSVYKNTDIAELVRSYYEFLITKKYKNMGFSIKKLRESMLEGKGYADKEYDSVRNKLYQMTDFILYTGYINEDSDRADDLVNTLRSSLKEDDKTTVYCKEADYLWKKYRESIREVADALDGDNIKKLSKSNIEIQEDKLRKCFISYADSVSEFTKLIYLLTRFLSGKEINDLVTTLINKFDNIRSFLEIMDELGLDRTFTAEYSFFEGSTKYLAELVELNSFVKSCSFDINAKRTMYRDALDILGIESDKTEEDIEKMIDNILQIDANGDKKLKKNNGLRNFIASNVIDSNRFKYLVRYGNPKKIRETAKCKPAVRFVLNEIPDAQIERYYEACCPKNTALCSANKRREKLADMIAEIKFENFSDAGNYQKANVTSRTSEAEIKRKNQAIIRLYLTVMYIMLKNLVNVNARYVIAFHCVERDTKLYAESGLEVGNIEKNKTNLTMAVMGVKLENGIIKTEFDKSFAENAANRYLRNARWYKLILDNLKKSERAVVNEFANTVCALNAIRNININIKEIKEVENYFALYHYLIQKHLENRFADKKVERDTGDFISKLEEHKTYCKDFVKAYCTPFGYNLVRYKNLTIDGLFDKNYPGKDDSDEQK
measurement-notes: crRNA (strand 1, pre-loaded); Mg2+; 40 mM Tris-HCl pH 7.5, 150 mM NaCl, 6 mM MgCl2, 1 mM DTT, 0.1% Tween-20, 0.2 mg/ml BSA; 25 C; 10 min per concentration, then washed
run-conditions: tags: His6-TwinStrep-SUMO cleaved; N-terminal SNAP kept (SNAP-Surface 488); label: 3' end held by stalled T7 RNA polymerase
reported-metric: Kd (nM)
Just the number please, in nM, no unit attached.

These solved cases illustrate the format of a correct answer.
>  <binder>
target 1 insA 3' of 15,insC 3' of 12 (mixed) RNA 1: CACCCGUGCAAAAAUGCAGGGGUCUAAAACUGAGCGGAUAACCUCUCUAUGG RNA 2: GGGAAUGGAUCCACAUCUACGAAUUCGUACCAUAGAGAAGGCUUAUCCGCUCACCGAGAUCGGAAGAGCACACGU

>  <unit-name>
nM

>  <assay-result>
31

$$$$
>  <binder>
target 2 MT 5'PFS UUG 3'PFS UAG (mixed) RNA 1: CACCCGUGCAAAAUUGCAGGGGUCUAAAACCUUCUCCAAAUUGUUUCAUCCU RNA 2: GGGAAUGGAUCCACAUCUACGAAUUCUUGAGGAUGAAACAAUUUGGAGAAGUAGAGAUCGGAAGAGCACACGU

>  <unit-name>
nM

>  <assay-result>
10.9

$$$$

Now take the following binder into account.
Query: Name the reported Kd value associated with the binder target 3 U2A,A18G (mixed) RNA 1: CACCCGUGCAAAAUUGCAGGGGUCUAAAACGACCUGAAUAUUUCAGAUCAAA RNA 2: GGGAAUGGAUCCACAUCUACGAAUUCGUUUUUGGUCUGAAAUAUUCAGGACUGCAGAUCGGAAGAGCACACGU
Response: 55.5
